B1: EHMT1 (parent)
chain: FHKDCASRVNNASYCPHCGEESSK

Variants of: B1
experimentDescription: protein stability index of a GFP-peptide fusion (GPS, HEK-293T) (PSI 1-6); higher = more stable;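 also: lentivirally expressed fusions sorted by FACS into six bins by GFP to DsRed ratio, PSI derived from sequencing read proportions per bin multiplied by bin number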
studyConditions: c terminus: a fixed tail appended
// reported protein stability index for each item listed
endpointName: protein stability index

itemSequence: FHKDRASRVNNASYCPHCGEESSK [C5R]
endpointName: protein stability index
observedMeasurement: 2.36
//
itemSequence: THKDCASRVNNASYCPHCGEESSK [F1T]
endpointName: protein stability index
observedMeasurement: 4.43
//
itemSequence: FHKDCASRVNNASYCPHCGEESSI [K24I]
endpointName: protein stability index
observedMeasurement: 3.27
//
itemSequence: FHKDCASAVNNASYCPHCGEESSK [R8A]
endpointName: protein stability index
observedMeasurement: 3.78
//
itemSequence: FHKDCASRVNNASYCHHCGEESSK [P16H]
endpointName: protein stability index
observedMeasurement: 3.15
//
itemSequence: FHKDCASRVNSASYCPHCGEESSK [N11S]
endpointName: protein stability index
observedMeasurement: 3.08
//
itemSequence: FHKDCASRVNNASYCPHCGEESHK [S23H]
endpointName: protein stability index
observedMeasurement: 3.48
//
itemSequence: FHKDCASRVNNSSYCPHCGEESSK [A12S]
endpointName: protein stability index
observedMeasurement: 3.29
//
itemSequence: FHKDCASRVNNASYCPHCGEEQSK [S22Q]
endpointName: protein stability index
observedMeasurement: 3.55
//
itemSequence: FHKDCASRVNNASYCPHCGEESWK [S23W]
endpointName: protein stability index
observedMeasurement: 2.69
//
itemSequence: FHKDCASRVNNASYRPHCGEESSK [C15R]
endpointName: protein stability index
observedMeasurement: 3.49
//
itemSequence: FHKDCASRVNNAFYCPHCGEESSK [S13F]
endpointName: protein stability index
observedMeasurement: 2.34
//
itemSequence: FHKDCASRVNNASYCPHCGEESSR [K24R]
endpointName: protein stability index
observedMeasurement: 2.5
//
itemSequence: FHKDCASRVNVASYCPHCGEESSK [N11V]
endpointName: protein stability index
observedMeasurement: 3.12
//
itemSequence: FHKDCASRVNNASYCPHCGEESKK [S23K]
endpointName: protein stability index
observedMeasurement: 3.16
//
itemSequence: FHKDCASRVNNASYTPHCGEESSK [C15T]
endpointName: protein stability index
observedMeasurement: 3.59
//
itemSequence: FHKDCASRVNNASYCPHCGEESSG [K24G]
endpointName: protein stability index
observedMeasurement: 3.5
//
itemSequence: FHKDCASRVANASYCPHCGEESSK [N10A]
endpointName: protein stability index
observedMeasurement: 3.6
//
itemSequence: FHKDCASRVNNASYCDHCGEESSK [P16D]
endpointName: protein stability index
observedMeasurement: 3.52
//
itemSequence: FHKDCASRVNNASYCPHCGEESSA [K24A]
endpointName: protein stability index
observedMeasurement: 2.92
//
itemSequence: FHKDCASRVFNASYCPHCGEESSK [N10F]
endpointName: protein stability index
observedMeasurement: 2.82
//
itemSequence: FHKDCADRVNNASYCPHCGEESSK [S7D]
endpointName: protein stability index
observedMeasurement: 3.23
//
itemSequence: FHKDCASRVNNASYCPHCGEHSSK [E21H]
endpointName: protein stability index
observedMeasurement: 3
//
itemSequence: FHKDCASRVNNASYCPHCGEESMK [S23M]
endpointName: protein stability index
observedMeasurement: 3.49
//
itemSequence: MHKDCASRVNNASYCPHCGEESSK [F1M]
endpointName: protein stability index
observedMeasurement: 4.9
//
itemSequence: FHKDCVSRVNNASYCPHCGEESSK [A6V]
endpointName: protein stability index
observedMeasurement: 3.5
//
itemSequence: FHKDCASRVNNASYCPHCGEENSK [S22N]
endpointName: protein stability index
observedMeasurement: 3.93
//
itemSequence: FHKDCASRVNNASYCPHCGERSSK [E21R]
endpointName: protein stability index
observedMeasurement: 2.92
//
itemSequence: FHKDCASRVNNASYCPHCGEISSK [E21I]
endpointName: protein stability index
observedMeasurement: 2.83
//
itemSequence: FHKDCASRVNLASYCPHCGEESSK [N11L]
endpointName: protein stability index
observedMeasurement: 2.53
//
itemSequence: FHKDCASRVNNVSYCPHCGEESSK [A12V]
endpointName: protein stability index
observedMeasurement: 3
//
itemSequence: FHKDCRSRVNNASYCPHCGEESSK [A6R]
endpointName: protein stability index
observedMeasurement: 2.97
//
itemSequence: FHHDCASRVNNASYCPHCGEESSK [K3H]
endpointName: protein stability index
observedMeasurement: 2.9
//
itemSequence: FHKDCASRVNNASYCPHCGEEKSK [S22K]
endpointName: protein stability index
observedMeasurement: 3.77
//
itemSequence: FHKDCASRVNNASYCPHCGEVSSK [E21V]
endpointName: protein stability index
observedMeasurement: 2.32
//
itemSequence: FHKDCASRVNNAWYCPHCGEESSK [S13W]
endpointName: protein stability index
observedMeasurement: 2.15
//
itemSequence: FHKDCASRVNNASYCPHLGEESSK [C18L]
endpointName: protein stability index
observedMeasurement: 2.76
//
itemSequence: FHKDCASRVNNASYCPHCGEESSY [K24Y]
endpointName: protein stability index
observedMeasurement: 2.9
//
itemSequence: FHKDCASRVNNASYCPHCGEESSF [K24F]
endpointName: protein stability index
observedMeasurement: 3.07
//
itemSequence: FHKDCAHRVNNASYCPHCGEESSK [S7H]
endpointName: protein stability index
observedMeasurement: 4.18
//
itemSequence: FHKDCASRVNNASYCPHCGEEFSK [S22F]
endpointName: protein stability index
observedMeasurement: 3.2
//
itemSequence: FHKDCASRVNNASYCPHCGEASSK [E21A]
endpointName: protein stability index
observedMeasurement: 3.52
//
itemSequence: FHKDCASRVNNASYCPHCGEESCK [S23C]
endpointName: protein stability index
observedMeasurement: 4.21
//
itemSequence: FHKDCASRVNTASYCPHCGEESSK [N11T]
endpointName: protein stability index
observedMeasurement: 3.21
//
itemSequence: FHKDCASRVNNASFCPHCGEESSK [Y14F]
endpointName: protein stability index
observedMeasurement: 3.36
//
itemSequence: FHKDCASRVVNASYCPHCGEESSK [N10V]
endpointName: protein stability index
observedMeasurement: 2.92
//
itemSequence: FYKDCASRVNNASYCPHCGEESSK [H2Y]
endpointName: protein stability index
observedMeasurement: 3.69
//
itemSequence: FHKDCASRVNNASYCPHCGEEESK [S22E]
endpointName: protein stability index
observedMeasurement: 4.01
//
itemSequence: FHKDCASRVNRASYCPHCGEESSK [N11R]
endpointName: protein stability index
observedMeasurement: 3.47
//
itemSequence: YHKDCASRVNNASYCPHCGEESSK [F1Y]
endpointName: protein stability index
observedMeasurement: 3.85
//
itemSequence: FHKDCASRVNNWSYCPHCGEESSK [A12W]
endpointName: protein stability index
observedMeasurement: 2.54
//
itemSequence: FHDDCASRVNNASYCPHCGEESSK [K3D]
endpointName: protein stability index
observedMeasurement: 3.47
//
itemSequence: QHKDCASRVNNASYCPHCGEESSK [F1Q]
endpointName: protein stability index
observedMeasurement: 5.09
//
itemSequence: FHKDCASRVNNASYCPHCGTESSK [E20T]
endpointName: protein stability index
observedMeasurement: 3.19
//
itemSequence: FHKDCASRVNNASYCPHCGEQSSK [E21Q]
endpointName: protein stability index
observedMeasurement: 3.12
//
itemSequence: FHKFCASRVNNASYCPHCGEESSK [D4F]
endpointName: protein stability index
observedMeasurement: 2.04
//
itemSequence: FHKDCASRVNNASYCPHFGEESSK [C18F]
endpointName: protein stability index
observedMeasurement: 2.93
//
itemSequence: FHKDCASRYNNASYCPHCGEESSK [V9Y]
endpointName: protein stability index
observedMeasurement: 3.21
//
itemSequence: FHKDCASMVNNASYCPHCGEESSK [R8M]
endpointName: protein stability index
observedMeasurement: 3.37
//
itemSequence: FHKDCASRVNKASYCPHCGEESSK [N11K]
endpointName: protein stability index
observedMeasurement: 3.54
//
itemSequence: FHKDCASRVNNASCCPHCGEESSK [Y14C]
endpointName: protein stability index
observedMeasurement: 3.66
//
itemSequence: FHKDCASRVNNASYHPHCGEESSK [C15H]
endpointName: protein stability index
observedMeasurement: 3.56
//
itemSequence: FHKDCASRVNNASYCPHCGEDSSK [E21D]
endpointName: protein stability index
observedMeasurement: 3.22
//
itemSequence: FHKDPASRVNNASYCPHCGEESSK [C5P]
endpointName: protein stability index
observedMeasurement: 1.77
//
itemSequence: FHKDCAARVNNASYCPHCGEESSK [S7A]
endpointName: protein stability index
observedMeasurement: 3.71
//
itemSequence: FHKDCATRVNNASYCPHCGEESSK [S7T]
endpointName: protein stability index
observedMeasurement: 3.28
//
itemSequence: FHKDCASRVNNASYCPHCGELSSK [E21L]
endpointName: protein stability index
observedMeasurement: 2.55
//
itemSequence: FHKDCASRVNNASYCPHCGEESIK [S23I]
endpointName: protein stability index
observedMeasurement: 3.87
//
itemSequence: FHKDCASRVNNASYCPHCGEESSD [K24D]
endpointName: protein stability index
observedMeasurement: 3.58
//
itemSequence: FHKDCASRVNNASYCPGCGEESSK [H17G]
endpointName: protein stability index
observedMeasurement: 3.18
//
itemSequence: FHKDCASRVNNASYCSHCGEESSK [P16S]
endpointName: protein stability index
observedMeasurement: 3.23
//
itemSequence: FHKDCASRVNNASYCPHCGEESPK [S23P]
endpointName: protein stability index
observedMeasurement: 3.15
//
itemSequence: FHKDCASRVNNAQYCPHCGEESSK [S13Q]
endpointName: protein stability index
observedMeasurement: 3.8
//
itemSequence: FHKDCFSRVNNASYCPHCGEESSK [A6F]
endpointName: protein stability index
observedMeasurement: 2.28
//
itemSequence: FHKDCASRLNNASYCPHCGEESSK [V9L]
endpointName: protein stability index
observedMeasurement: 3.73
//
itemSequence: FVKDCASRVNNASYCPHCGEESSK [H2V]
endpointName: protein stability index
observedMeasurement: 1.96
//
itemSequence: FHKDCASRVNNASYGPHCGEESSK [C15G]
endpointName: protein stability index
observedMeasurement: 3.82
//
itemSequence: FHKGCASRVNNASYCPHCGEESSK [D4G]
endpointName: protein stability index
observedMeasurement: 2.56
//
itemSequence: FHKDCASRVNNASYCPHDGEESSK [C18D]
endpointName: protein stability index
observedMeasurement: 4.03
//
itemSequence: FHKDCDSRVNNASYCPHCGEESSK [A6D]
endpointName: protein stability index
observedMeasurement: 3.52
//
itemSequence: FHADCASRVNNASYCPHCGEESSK [K3A]
endpointName: protein stability index
observedMeasurement: 2.58
//
itemSequence: FHKDCASRVNNASYCPHCGKESSK [E20K]
endpointName: protein stability index
observedMeasurement: 3.68
//
itemSequence: VHKDCASRVNNASYCPHCGEESSK [F1V]
endpointName: protein stability index
observedMeasurement: 4.78
//
itemSequence: FHKDCASRVNNASYCPHCGEMSSK [E21M]
endpointName: protein stability index
observedMeasurement: 2.64
//
itemSequence: FHKDCASRVNNYSYCPHCGEESSK [A12Y]
endpointName: protein stability index
observedMeasurement: 2.85
//
itemSequence: FHKDCASRVNNASYCPHCIEESSK [G19I]
endpointName: protein stability index
observedMeasurement: 3.87
//
itemSequence: FHKDCASRANNASYCPHCGEESSK [V9A]
endpointName: protein stability index
observedMeasurement: 3.47
//
itemSequence: FHKDCASRVNNASYCPHAGEESSK [C18A]
endpointName: protein stability index
observedMeasurement: 3.76
//
itemSequence: FHKDCASRVNNASYCPHCGEEHSK [S22H]
endpointName: protein stability index
observedMeasurement: 4.09
//
itemSequence: CHKDCASRVNNASYCPHCGEESSK [F1C]
endpointName: protein stability index
observedMeasurement: 5.43
//
itemSequence: FHKDCASRHNNASYCPHCGEESSK [V9H]
endpointName: protein stability index
observedMeasurement: 4.71
